System: SA-138 (clinical isolate)
Experiment: MIC broth microdilution, SA-138
Type: cell-based, Staphylococcus aureus
Setup Conditions: Table 3
Method: The minimum inhibitory concentration (MIC) for each tested compound was determined by the broth microdilution method as recommended by the Clinical and Laboratory Standards Institute (CLSI). In a 96-well plate, eleven two-fold serial dilutions of each compound were made in a final volume of 100 μL Luria Broth. […] (MIC values were supported by spectrophotometric readings at OD600). […]
Marks after values point to notes of the source that are not given here.
Property Measured: MIC SA-138

Fill blank: measured MIC SA-138 of the molecule CCCCCCCCCCCCCCCCn1cc[n+](CCCC)c1C.[Br-] is ____.
1.17^a μM

Fill blank: measured MIC SA-138 of the molecule CCCCCCCCCCCCCCCCn1cc[n+](C)c1C.[I-] is ____.
2.35^a μM

Fill blank: measured MIC SA-138 of the molecule CCCCCCCCCCCCCCCCn1cc(-c2ccccc2)[n+](C)n1.[I-] is ____.
2.35^a μM

Fill blank: measured MIC SA-138 of the molecule CCCCCCCCCCCC[N+](C)(C)CC[N+](C)(C)CC[N+](C)(C)CCCCCCCCCCCC [QAC-10, reference compound] is ____.
2.35^a μM

* * *

System: methicillin-sensitive Staphylococcus aureus ATCC 29213
Experiment: MIC broth microdilution, S. aureus 29213
Type: cell-based
Setup Conditions: Table 1B
Procedure: The minimum inhibitory concentration (MIC) for each tested compound was determined by the broth microdilution method as recommended by the Clinical and Laboratory Standards Institute (CLSI). In a 96-well plate, eleven two-fold serial dilutions of each compound were made in a final volume of 100 μL Luria Broth. […] (MIC values were supported by spectrophotometric readings at OD600). […]
Marks after values point to notes of the source that are not given here.
Property Measured: MIC S. aureus 29213

Fill blank: measured MIC S. aureus 29213 of the molecule CCCCCCCCCCCCCCCCn1cc[n+](-c2ccc(OC(F)(F)F)cc2)c1C.[Br-] [Compound 7] is ____.
2.35^a μM

Fill blank: measured MIC S. aureus 29213 of the molecule CCCCCCCCCCCCCCCCn1cc[n+](Cc2cccc(F)c2)c1C.[Br-] [Compound 18] is ____.
4.69^a μM

Fill blank: measured MIC S. aureus 29213 of the molecule CCCCCCCCCCCCCCCCn1cc[n+](CCCC)c1C.[Br-] [Compound 9] is ____.
2.35^a μM

Fill blank: measured MIC S. aureus 29213 of the molecule CCCCCCCCCCCC[N+](C)(C)CC[N+](C)(C)CC[N+](C)(C)CCCCCCCCCCCC [QAC-10, reference compound] is ____.
4.69^a μM

Fill blank: measured MIC S. aureus 29213 of the molecule CCCCCCCCCCCCCCCCn1cc[n+](CCO)c1C.[Br-] [Compound 11] is ____.
1.17^a μM

Fill blank: measured MIC S. aureus 29213 of the molecule CCCCCCCCCCCCCCCCn1cc[n+](-c2ccc(Oc3ccccc3)cc2)c1C.[Br-] [Compound 5] is ____.
4.69^a μM

* * *

Kindly state MIC for each of the entries shown.
System: methicillin-resistant Staphylococcus aureus MRSA-2 (clinical isolate)
Experiment: MIC broth microdilution, MRSA-2
Assay type: cell-based
Setup Conditions: Table 1B; read-out: MIC MRSA-2
The figure you give is taken to be in µM; do not add the unit.

Fill blank: measured MIC of the molecule CCCCCCCCCCCCCCCCn1cc[n+](CCO)c1C.[Br-] is ____.
0.78

Fill blank: measured MIC of the molecule CCCCCCCCCCCCCCCCn1cc[n+](-c2ccc(OC(F)(F)F)cc2)c1C.[Br-] is ____.
3.13

Fill blank: measured MIC of the molecule CCCCCCCCCCCCCCCCn1c(C)[n+](Cc2ccccc2)c2ccccc21.[Br-] is ____.
12.5

Fill blank: measured MIC of the molecule CCCCCCCCCCCCCCCCn1cc[n+](-c2ccc(Cl)cc2)c1C.[Br-] is ____.
3.13

Fill blank: measured MIC of the molecule CCCCCCCCCCCCCCCCn1cc(-c2ccccc2)[n+](C)n1.[I-] is ____.
6.25

These measurements were taken from patent US11419335B2.
